# System: ragweed (common ragweed, Ambrosia elatior)
# assayProcedure: Test C greenhouse herbicide test, pre- and postemergence
# Format: in vivo
# conditionInfo: Preemergence, 31 g ai/ha; scale 0 to 100, 0 is no effect, 100 is complete control
assayEndpoint: Plant response rating, Ragweed

>  <mol>
CCC(=O)Oc1c(C)nn(C)c(=O)c1-c1ccc(Br)c2ccccc12

>  <experimentalResult>
70

$$$$
>  <mol>
CCc1sc2ccc(C)cc2c1-c1c(O)c(C)nn(C)c1=O

>  <experimentalResult>
50

$$$$
>  <mol>
Cc1ccc2ccc(Cl)cc2c1-c1c(O)c(C)nn(C)c1=O

>  <experimentalResult>
98

$$$$
>  <mol>
COC(=O)Oc1c(C)nn(C)c(=O)c1-c1c(C)sc2ccc(C)cc12

>  <experimentalResult>
90

$$$$
>  <mol>
CCCC(=O)Oc1c(C)nn(C)c(=O)c1-c1c(C)sc2ccc(C)cc12

>  <experimentalResult>
90

$$$$
>  <mol>
Cc1nn(C)c(=O)c(-c2cccc3ccccc23)c1O

>  <experimentalResult>
15

$$$$
>  <mol>
CCC(=O)Oc1c(C)nn(C)c(=O)c1-c1ccc(F)c2ccccc12

>  <experimentalResult>
65

$$$$
>  <mol>
Cc1nn(C)c(=O)c(-c2ccc(Br)c3ccccc23)c1O

>  <experimentalResult>
80

$$$$

----------
# Tested on: crabgrass, large (large crabgrass, Digitaria sanguinalis)
# assayProcedure: Test C greenhouse herbicide test, pre- and postemergence
# Assay type: in vivo
# conditionInfo: Preemergence, 31 g ai/ha; scale 0 to 100, 0 is no effect, 100 is complete control
assayEndpoint: Plant response rating, Crabgrass, Large

>  <mol>
CC(=O)Oc1c(C)nn(C)c(=O)c1-c1c(C)sc2ccc(C(F)(F)F)cc12

>  <studyTarget>
crabgrass, large (large crabgrass, Digitaria sanguinalis)

>  <experimentalResult>
0

$$$$
>  <mol>
Cc1nn(C)c(=O)c(-c2c(C)sc3c(C)cc(Cl)cc23)c1O

>  <studyTarget>
crabgrass, large (large crabgrass, Digitaria sanguinalis)

>  <experimentalResult>
5

$$$$
>  <mol>
COC(=O)Oc1c(OC)nn(C)c(=O)c1-c1c(C)ccc2ccccc12

>  <studyTarget>
crabgrass, large (large crabgrass, Digitaria sanguinalis)

>  <experimentalResult>
0

$$$$
>  <mol>
CCC(=O)Oc1c(OC)nn(C)c(=O)c1-c1c(C)sc2ccc(Cl)cc12

>  <studyTarget>
crabgrass, large (large crabgrass, Digitaria sanguinalis)

>  <experimentalResult>
0

$$$$
>  <mol>
Cc1ccc2ccccc2c1-c1c(OC(=O)OC(C)C)c(C)nn(C)c1=O

>  <studyTarget>
crabgrass, large (large crabgrass, Digitaria sanguinalis)

>  <experimentalResult>
60

$$$$
>  <mol>
Cc1nn(C)c(=O)c(-c2cccc3ccccc23)c1O

>  <studyTarget>
crabgrass, large (large crabgrass, Digitaria sanguinalis)

>  <experimentalResult>
0

$$$$

----------
# Tested on: wheat (Triticum aestivum)
# assayProcedure: Test A greenhouse herbicide test, pre- and postemergence
# Assay type: in vivo
# conditionInfo: Postemergence, 125 g ai/ha; 0 to 100 scale, 0 no effect, 100 complete control
Parameter: Plant response rating, Wheat. Scope: all listed entries.

>  <mol>
Cc1nn(C)c(=O)c(-c2ccc(Cl)c3ccccc23)c1OS(=O)(=O)C(F)(F)F

>  <Plant response rating, Wheat>
0

$$$$
>  <mol>
Cc1nn(C)c(=O)c(-c2c([N+](=O)[O-])ccc3ccccc23)c1O

>  <Plant response rating, Wheat>
0

$$$$
>  <mol>
Cc1n[nH]c(=O)c(-c2cccc3ccccc23)c1OCC(F)F

>  <Plant response rating, Wheat>
0

$$$$
>  <mol>
CC(=O)Oc1c(Cl)nn(C)c(=O)c1-c1c(C)sc2ccc(C(F)(F)F)cc12

>  <Plant response rating, Wheat>
30

$$$$
